These measurements were taken from the RNAGym collection of RNA variant scans (doi:10.1093/nar/gkz1192).

Listed here are variants together with their documented self-cleavage.
B1: CPEB3 Ribozyme (parent)
chain: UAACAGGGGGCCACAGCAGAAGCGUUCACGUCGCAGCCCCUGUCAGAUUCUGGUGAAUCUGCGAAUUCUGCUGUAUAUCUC

Variants of: B1
method: self-cleavage, relative activity (ratio to wild type); higher = more cleavage; in vitro, sequencing

mut: C62U U78C
self-cleavage: 0.2
--
mut: C44U U78A
self-cleavage: 0.3
--
mut: A64C U78C
self-cleavage: 0.28
--
mut: G52C
self-cleavage: 1.05
--
mut: C39A A45G
self-cleavage: 0.33
--
mut: U66C U67A
self-cleavage: 0.25
--
mut: G8U U54A
self-cleavage: 0.07
--
mut: G16A U74C
self-cleavage: 0.77
--
mut: A20U A75U
self-cleavage: 0.28
--
mut: A20U U25C
self-cleavage: 0.31
--
mut: A3C C37U
self-cleavage: 0.6
--
mut: U74A A75C
self-cleavage: 1.44
--
mut: G42A U48C
self-cleavage: 0.33
--
mut: G53A U80A
self-cleavage: 1.18
--
mut: U31G C32U
self-cleavage: 0.22
--
mut: A5G C68A
self-cleavage: 0.46
--
mut: U66G U69A
self-cleavage: 0.47
--
mut: A13C U80A
self-cleavage: 0.92
--
mut: U41A G73A
self-cleavage: 0.45
--
mut: A45U U69G
self-cleavage: 0.51
--
mut: A18U U69G
self-cleavage: 1.14
--
mut: A57C U66A
self-cleavage: 0.2
--
mut: U69C U76A
self-cleavage: 0.75
--
mut: A20G A47C
self-cleavage: 0.44
--
mut: C4G A13G
self-cleavage: 1.08
--
mut: C37A A64G
self-cleavage: 0.25
--
mut: U41A U48C
self-cleavage: 0.23
--
mut: U41G A56U
self-cleavage: 0.25
--
mut: U1C C29U
self-cleavage: 0.33
--
mut: U25C C62G
self-cleavage: 0.18
--
mut: U51A G63A
self-cleavage: 1
--
mut: C37G G42U
self-cleavage: 0.29
--
mut: G8A G22A
self-cleavage: 0.27
--
mut: C37U G63U
self-cleavage: 0.84
--
mut: A3U U76G
self-cleavage: 1.13
--
mut: U43C C71U
self-cleavage: 0.36
--
mut: C12U A75G
self-cleavage: 1.3
--
mut: A3U U51A
self-cleavage: 1.02
--
mut: U41G A77G
self-cleavage: 0.2
--
mut: A21U G63C
self-cleavage: 0.28
--
mut: C37A A45U
self-cleavage: 0.23
--
mut: A20C U49C
self-cleavage: 0.17
--
mut: U48C U51C
self-cleavage: 0.49
--
mut: C39U U67C
self-cleavage: 0.21
--
mut: C23A U54C
self-cleavage: 0.18
--
mut: A45C A57G
self-cleavage: 0.26
